system: SK-MEL-3 tumor cells; experiment: Cell growth inhibition assay (CellTiter-Glo), SK-MEL-3; format: cell-based, Human; details: Homo sapiens, SK-MEL3
OBSERVED_PROPERTY: IC50

1. CCc1nc(-c2cccc(NS(=O)(=O)c3ccccc3)c2)c(-c2ccnc(Nc3ccc(OC)c(N4CCN(CCS(C)(=O)=O)CC4)c3)n2)s1 ... < 100 nM
2. CC(=O)N1CCN(c2ccc(Nc3nccc(-c4sc(C(C)C)nc4-c4cccc(NS(=O)(=O)c5ccccc5F)c4)n3)cn2)CC1 ... < 100 nM
3. CC(C)c1nc(-c2ccc(F)c(NS(=O)(=O)c3c(F)cccc3F)c2)c(-c2ccnc(Nc3ccc(N4CCN(CCS(C)(=O)=O)CC4)c(F)c3)n2)s1 ... 100 to 1000 nM
4. COc1cc(N2CCN(CCS(C)(=O)=O)CC2)c(C)cc1Nc1nccc(-c2sc(N3CCOCC3)nc2-c2cccc(NS(=O)(=O)c3c(F)cccc3F)c2)n1 ... < 100 nM
5. CCc1nc(-c2cccc(NS(=O)(=O)c3ccccc3)c2)c(-c2ccnc(Nc3cc(OC)c(OC)c(OC)c3)n2)s1 ... < 100 nM
6. CC(=O)N1CCN(c2ccc(Nc3nccc(-c4sc(C(C)C)nc4-c4cccc(NS(=O)(=O)C5CCCCC5)c4)n3)cn2)CC1 ... 100 to 1000 nM
7. COc1cc(N2CCN(CCS(C)(=O)=O)CC2)c(C)cc1Nc1nccc(-c2sc(C(C)C)nc2-c2cccc(NS(=O)(=O)c3c(F)cccc3F)c2)n1 ... 100 to 1000 nM
8. CC(C)c1nc(-c2ccc(F)c(NS(=O)(=O)c3c(F)cccc3F)c2)c(-c2ccnc(Nc3ccc(N4CCN5CCOC[C@H]5C4)nc3)n2)s1 ... < 100 nM
9. Cc1cc(Nc2nccc(-c3sc(C(C)(C)C)nc3-c3cccc(NS(=O)(=O)c4c(F)cccc4F)c3F)n2)ccn1 ... < 100 nM
10. COc1cc(C2CCN(CCS(C)(=O)=O)CC2)c(C)cc1Nc1nccc(-c2sc(C(C)C)nc2-c2cccc(NS(=O)(=O)c3c(F)cccc3F)c2)n1 ... 100 to 1000 nM
11. CC(C)c1nc(-c2cccc(NS(=O)(=O)c3ccco3)c2)c(-c2ccnc(Nc3ccc(N4CCOCC4)nc3)n2)s1 ... < 100 nM
12. C=C(C)c1nc(-c2cccc(NS(=O)(=O)c3c(F)cccc3F)c2)c(-c2ccnc(Nc3ccc(N4CCN(CCF)CC4)c(F)c3)n2)s1 ... 100 to 1000 nM
13. CCNc1nc(-c2ccc(F)c(NS(=O)(=O)c3c(F)cccc3F)c2)c(-c2ccnc(Nc3ccc(N4CCOCC4)nc3)n2)s1 ... 100 to 1000 nM

###

Target: UniProt:P15056
Assay: B-Raf Accelerated MEK ATPase assay (BRAMA), Method A or B
Assay type: biochemical
Conditions: Method B: final MEK 150 nM, single end point read
Description: Compounds of the present invention were tested for B-Raf protein serine kinase inhibitory activity in a B-Raf Accelerated MEK ATPase assay (BRAMA). […] Method A: Specific details of the assay are disclosed in: C. […] Method B: The method is the same as method A, but includes the following changes: 1) the assay was performed with a final MEK concentration of 150 nM and 2) the assay was read as single end point instead of a kinetic read.
pIC50: −log10 of the molar value.
OBSERVED_PROPERTY: pIC50

1. CC(C)c1nc(-c2cccc(NS(=O)(=O)c3c(F)cccc3F)c2)c(-c2ccnc(Nc3cnc(N4CCOCC4)cc3O)n2)s1 [Example 139] ... > 7.00
2. Cc1nc(-c2cccc(NS(=O)(=O)c3c(F)cccc3F)c2)c(-c2ccnc(Nc3ccc(N4CCOCC4)nc3)n2)s1 [Example 133] ... > 7.00
3. CC(C)c1nc(-c2cccc(NS(=O)(=O)c3ccccc3)c2)c(-c2ccnc(Nc3ccc(N4CCOCC4)cn3)n2)s1 [Example 92] ... > 7.00
4. CC(C)c1nc(-c2ccc(F)c(NS(=O)(=O)c3c(F)cccc3F)c2)c(-c2ccnc(Nc3ccc(N4CCN(CCS(C)(=O)=O)CC4)c(F)c3)n2)o1 [Example 61] ... > 7.00
5. COc1cc2c(cc1Nc1nccc(-c3sc(C(C)C)nc3-c3cccc(NS(=O)(=O)c4c(F)cccc4F)c3)n1)N(C(=O)CN(C)C)CC2 [Example 118] ... 6.00 to 7.00
6. CC(=O)N1CCN(c2ccc(Nc3nccc(-c4sc(C(C)C)nc4-c4cccc(NS(=O)(=O)c5ccc(F)cc5)c4)n3)cn2)CC1 [Example 10] ... > 7.00

###

# maps each entry to its IC50
biological target: B-Raf (Homo sapiens, UniProt P15056); test: B-Raf Accelerated MEK ATPase assay (BRAMA), Method A or B; format: biochemical; conditions: Method B: final MEK 150 nM, single end point read
Sequence (P15056 whole entry): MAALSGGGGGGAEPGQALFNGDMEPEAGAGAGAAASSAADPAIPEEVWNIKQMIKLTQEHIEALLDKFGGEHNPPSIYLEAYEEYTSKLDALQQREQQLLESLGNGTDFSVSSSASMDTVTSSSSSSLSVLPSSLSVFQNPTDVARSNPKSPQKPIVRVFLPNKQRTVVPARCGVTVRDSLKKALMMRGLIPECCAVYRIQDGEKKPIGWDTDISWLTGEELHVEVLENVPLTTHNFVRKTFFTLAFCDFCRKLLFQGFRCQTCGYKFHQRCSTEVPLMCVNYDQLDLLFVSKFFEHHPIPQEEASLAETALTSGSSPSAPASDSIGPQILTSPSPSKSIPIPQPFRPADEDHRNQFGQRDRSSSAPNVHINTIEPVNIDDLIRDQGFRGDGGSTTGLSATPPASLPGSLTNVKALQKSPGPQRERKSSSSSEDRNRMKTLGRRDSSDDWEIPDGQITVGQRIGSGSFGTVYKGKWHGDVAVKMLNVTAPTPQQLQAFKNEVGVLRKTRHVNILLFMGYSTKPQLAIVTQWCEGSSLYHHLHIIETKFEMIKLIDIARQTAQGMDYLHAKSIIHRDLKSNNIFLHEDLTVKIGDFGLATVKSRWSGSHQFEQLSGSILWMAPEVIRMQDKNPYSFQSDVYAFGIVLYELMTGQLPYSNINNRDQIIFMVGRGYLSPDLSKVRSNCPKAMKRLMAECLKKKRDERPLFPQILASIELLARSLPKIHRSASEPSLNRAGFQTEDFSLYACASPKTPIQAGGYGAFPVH
Structures can show the parent of a compound that is named as a salt.
OBSERVED_PROPERTY: IC50

1) CC(C)(C)c1nc(-c2ccc(F)c(NS(=O)(=O)c3c(F)cccc3F)c2)c(-c2ccnc(Nc3ccc(N4CCOCC4)nc3)n2)s1 [Example 28, hydrochloride] ... < 100 nM
2) COc1cc(N2CCN(CCS(C)(=O)=O)CC2)c(C)cc1Nc1nccc(-c2sc(C(C)C)nc2-c2cccc(NS(=O)(=O)c3cn(C)cn3)c2)n1 ... 100 to 1000 nM
3) O=S(=O)(Nc1cc(-c2nc(N3CCCC3)oc2-c2ccnc(Nc3ccc(N4CCOCC4)c(F)c3)n2)ccc1F)c1ccccc1F ... < 100 nM
4) CC(=O)N1CCN(c2ccc(Nc3nccc(-c4sc(C(C)C)nc4-c4cccc(NS(=O)(=O)c5cn(C)cn5)c4)n3)cn2)CC1 ... < 100 nM
5) CC(C)c1nc(-c2cc(F)c(F)c(NS(=O)(=O)c3cccc(F)c3)c2)c(-c2ccnc(Nc3cnc(N4CCOCC4)c(F)c3)n2)s1 ... < 100 nM
6) CC(C)c1nc(-c2cccc(NS(=O)(=O)c3ccco3)c2)c(-c2ccnc(Nc3ccc(N4CCOCC4)nc3)n2)s1 ... < 100 nM
7) COc1ccc(S(C)(=O)=O)cc1Nc1nccc(-c2sc(N3CCOCC3)nc2-c2cccc(NS(=O)(=O)c3c(F)cccc3F)c2F)n1 ... < 100 nM
8) CN1CCC(c2nc(-c3ccc(F)c(NS(=O)(=O)c4c(F)cccc4F)c3)c(-c3ccnc(Nc4ccc(N5CCOCC5)nc4)n3)s2)CC1 ... < 100 nM
9) CC(C)c1nc(-c2ccc(F)c(NS(=O)(=O)c3c(F)cccc3F)c2)c(-c2ccnc(Nc3ncc[nH]3)n2)s1 ... 100 to 1000 nM
10) CC(=O)N1CCN(c2ccc(Nc3nccc(-c4oc(C(C)C)nc4-c4cccc(NS(=O)(=O)c5c(F)cccc5F)c4)n3)cn2)CC1 ... < 100 nM
11) CC(C)c1nc(-c2ccnc(NS(=O)(=O)c3c(F)cccc3F)c2)c(-c2ccnc(Nc3ccc(N4CCN(CCF)CC4)c(F)c3)n2)s1 ... < 100 nM
12) CC(C)c1nc(-c2ccc(F)c(NS(=O)(=O)c3c(F)cccc3F)c2)c(-c2ccnc(Nc3ccc(N4CCN(CCF)CC4)c(F)c3)n2)s1 ... < 100 nM
13) CCc1nc(-c2ccc(F)c(NS(=O)(=O)c3ccccc3)c2)c(-c2ccnc(Nc3ccc(N4CCN(C(C)C)CC4)cc3OC)n2)s1 ... 100 to 1000 nM
14) CC(C)c1nc(-c2cccc(NS(=O)(=O)c3c(F)cccc3F)c2)c(-c2ccnc(Nc3ccc(N4CCN(CCS(C)(=O)=O)CC4)c(F)c3)n2)s1 [Example 16, hydrochloride] ... < 100 nM
15) CC(C)c1nc(-c2cccc(NS(=O)(=O)c3c(F)cccc3F)c2)c(-c2ccnc(Nc3ccc(OC4CCN(CCS(C)(=O)=O)CC4)c(F)c3)n2)s1 [Example 13, hydrochloride] ... < 100 nM
16) CCc1nc(-c2ccc(F)c(NS(=O)(=O)c3ccccc3)c2)c(-c2ccnc(Nc3ccc(N4CCN(CCS(C)(=O)=O)CC4)c(F)c3)n2)s1 ... 100 to 1000 nM
17) COc1cc(N2CCN(CCS(C)(=O)=O)CC2)c(C)cc1Nc1nccc(-c2oc(N3CCCC3)nc2-c2cccc(NS(=O)(=O)c3c(F)cccc3F)c2)n1 ... 100 to 1000 nM
18) CC(C)c1nc(-c2cccc(NS(=O)(=O)c3ccccc3)c2)c(-c2ccnc(Nc3ccc(F)c(N4CCN(CCS(C)(=O)=O)CC4)c3)n2)s1 ... < 100 nM
19) CCc1nc(-c2cccc(NS(=O)(=O)c3ccccc3)c2)c(-c2ccnc(Nc3ccc(N4CCN(C(C)=O)CC4)nc3)n2)s1 ... < 100 nM
20) COc1cc(N2CCC(N3CCN(CCS(C)(=O)=O)CC3)CC2)ccc1Nc1nccc(-c2sc(C(C)C)nc2-c2cccc(NS(=O)(=O)c3c(F)cccc3F)c2)n1 ... < 100 nM
21) COc1cc(CCN2CCCCC2)c(F)cc1Nc1nccc(-c2sc(C(C)C)nc2-c2cccc(NS(=O)(=O)c3c(F)cccc3F)c2)n1 ... < 100 nM
22) CS(=O)(=O)c1cccc(Nc2nccc(-c3sc(N4CCOCC4)nc3-c3cccc(NS(=O)(=O)c4c(F)cccc4F)c3F)n2)c1 ... < 100 nM
23) CC(C)c1nc(-c2cccc(NS(=O)(=O)c3ccccc3)c2)c(-c2ccnc(Nc3ccc(N4CCOCC4)nc3)n2)s1 [Example 8, hydrochloride] ... < 100 nM
24) Nc1nc(-c2cccc(NS(=O)(=O)c3c(F)cccc3F)c2)c(-c2ccnc(Nc3ccc(N4CCOCC4)nc3)n2)s1 ... < 100 nM
